Biological target: Cytochrome P450 1A2 (Homo sapiens) (UniProt P05177)
Sequence (P05177 whole entry, looked up): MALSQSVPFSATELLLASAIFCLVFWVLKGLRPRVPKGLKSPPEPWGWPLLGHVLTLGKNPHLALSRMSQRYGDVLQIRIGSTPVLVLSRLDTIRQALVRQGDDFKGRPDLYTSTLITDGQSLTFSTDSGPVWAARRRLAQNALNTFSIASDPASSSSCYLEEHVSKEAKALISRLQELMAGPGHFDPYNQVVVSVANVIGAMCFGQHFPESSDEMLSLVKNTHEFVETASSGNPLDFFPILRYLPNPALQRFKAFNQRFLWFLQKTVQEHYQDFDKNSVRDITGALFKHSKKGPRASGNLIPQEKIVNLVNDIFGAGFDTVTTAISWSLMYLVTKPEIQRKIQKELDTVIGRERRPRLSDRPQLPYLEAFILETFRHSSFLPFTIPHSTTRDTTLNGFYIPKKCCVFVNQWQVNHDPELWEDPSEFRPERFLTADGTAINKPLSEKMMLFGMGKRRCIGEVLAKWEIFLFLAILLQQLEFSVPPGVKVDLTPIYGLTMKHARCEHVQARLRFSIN
Assay: p450-cyp1a2 (AID 410)
Conditions: recombinant CYP1A2, luciferin-ME demethylation, luminescence; series mostly up to 11.4 µM
Results filed as inconclusive are left out. Activity calls are given as the source filed them. Calls follow the shape of the full dose curve.
The reply should be one of these categories: active, inactive

Solved cases (3 shown):
> print(dat)
                                   compound                               test.target  class.name
1               c1ccc(NCCSc2nc3ccccc3s2)cc1  Cytochrome P450 1A2 (Homo sapiens) (UniProt P05177)      active
2                        Nc1ccccc1CCCC(=O)O  Cytochrome P450 1A2 (Homo sapiens) (UniProt P05177)    inactive
3  O[C@@H](C1=C/C(=C\c2ccncc2)c2ccccc21)c1ccncc1  Cytochrome P450 1A2 (Homo sapiens) (UniProt P05177)      active

Query block: Hi team, can someone confirm the assay call for COc1ccc(CN[C@H](C)C(=O)O)cc1 ?
Result block: inactive

Query block: Hi team, can someone confirm the assay call for O=C1C2=C(Nc3cc([N+](=O)[O-])ccc3N2)O[C@@H]1c1c[nH]c2ccc(COc3ccccc3)cc12 ?
Result block: active

Query block: Hi team, can someone confirm the assay call for CN1C[C@H](c2ccccc2)C(O)([C@]2(c3ccccc3)CN(C)C[C@@H](c3ccccc3)C2=O)[C@H](c2ccccc2)C1 (some centres undefined) ?
Result block: inactive

Query block: Hi team, can someone confirm the assay call for Cc1c2cc[n+](CCN3CCCCC3)cc2c(C)c2c1[nH]c1ccc(O)cc12 ?
Result block: active

Query block: Hi team, can someone confirm the assay call for O=C(O)CCC(=O)N1CCC[C@H]1C(=O)O ?
Result block: inactive

Query block: Hi team, can someone confirm the assay call for C#CCOCCCC(=O)O ?
Result block: inactive

Query block: Hi team, can someone confirm the assay call for N#CCCn1c(=O)c(-c2cccs2)nc2cnc(Oc3cccc(Cl)c3)nc21 ?
Result block: active

Query block: Hi team, can someone confirm the assay call for Nc1nc(Cl)nc2c1ncn2[C@@H]1O[C@@H](COP(=O)(O)OP(=O)(O)OP(=O)(O)O)[C@@H](O)[C@H]1O ?
Result block: inactive

Query block: Hi team, can someone confirm the assay call for COCCNc1nc(-c2ccc(C(=O)N(C)C)cc2)nc2ccccc12 ?
Result block: active

Query block: Hi team, can someone confirm the assay call for CSc1ccc2c(c1)N(CCCN(C)C)c1ccccc1S2 ?
Result block: active

Query block: Hi team, can someone confirm the assay call for OCCN(CO)CO ?
Result block: inactive

Query block: Hi team, can someone confirm the assay call for NS(=O)(=O)c1cc2c(cc1Cl)N[C@H](Cc1ccccc1)NS2(=O)=O ?
Result block: active
